System: castrate Sprague-Dawley male rats
Assay: Androgenic activity, Hershberger test (ventral prostate weight)
Type: in vivo, rat
Conditions: subcutaneous injection, daily for 7 days, CBD-111 (testosterone) = 1.000 assigned, FIG. 6, footnote 2 values did not pass all significance tests
Give measured Androgenic activity Potency Ratio for each item. Keep answers brief.

Lab note: each molecule below needs its Androgenic activity Potency Ratio filled in.
1. COC(=O)O[C@H]1CC[C@H]2[C@H]3[C@H]([C@@H](C)C[C@]12C)[C@H]1CCC(=O)C=C1C[C@H]3C [CDB-4718]
2. CCCCCCCCCCCCOC(=O)O[C@H]1CC[C@H]2[C@H]3[C@H]([C@@H](C)C[C@]12C)[C@H]1CCC(=O)C=C1C[C@H]3C [CDB-4730]
3. CCCCCCOC(=O)O[C@H]1CC[C@H]2[C@H]3[C@H]([C@@H](C)C[C@]12C)[C@H]1CCC(=O)C=C1C[C@H]3C [CDB-4731]

1. 10.4-47.5
2. 0.05^1,2
3. 32
